system: EKVX NSCLC; experiment: NCI tumour cell line growth inhibition, 48 h
Where a SMILES comes first, the peptide text is derived from it. The star is where a group is joined. Cbz = O=C(OCc1ccccc1)*
Would you mind telling me the reported TGI of each entry?

**Query** Using the record for COc1ccc2c(c1)OC(N)=C(C#N)C2c1ccc(F)cc1 (stereo not drawn) , report its TGI.
**Result** > 100 µM

**Query** Item under review: Oc1c(N=Nc2ccccc2)c2ccccc2c2ccc3ccccc3c12 . Reported TGI?
**Result** > 100 µM

**Query** Value lookup for TGI; key = CCOC(=O)C(CC(=O)OC)NC(=O)C(CC(=O)OC)NC(=O)C(CC(=O)OC)NC(=O)C(CC(=O)OC)NC(=O)OCc1ccccc1 (stereo not drawn) (Cbz-D(OMe)D(OMe)D(OMe)D(OMe)-OEt; configuration not given here)
**Result** > 100 µM

**Query** So what's the measured TGI for this one? O=C(/C=C(\O)c1ccc(Cl)cc1)C(=O)NN=C(c1ccccc1)c1ccccc1
**Result** > 100 µM

**Query** Quick one: TGI of CN(C)/C=C/c1nnnn1-c1ccc(I)cc1 ?
**Result** 51.3 µM

**Query** Reported TGI for O=C1NC(=NC2CCCCC2)C2(CCN(CCCC3(c4ccc(F)cc4)OCCO3)CC2)N1c1ccccc1 : what is it?
**Result** 36.2 µM

**Query** I am curious: what TGI value has been reported for CCOc1ccccc1NC(=O)C1=C(C)NC(C)=C(C(=O)Nc2ccccc2OCC)C1c1ccc(NC(C)=O)cc1 ?
**Result** > 100 µM

**Query** Which value of TGI has been reported for CC(=O)OC[C@@H](OC(C)=O)[C@@H](OC(C)=O)[C@H]1OC[C@@H]2C[C@H]([C@H]1OC(C)=O)N(Cc1ccccc1)O2 in the records?
**Result** > 100 µM
